System: KB-3-1
Assay: Cytotoxic Profiling of Annotated Libraries Using Quantitative High-Throughput Screening (AID 1296008); also: nearly all actives have a fitted effect of over 60% in size
Conditions: Five cell lines viability, CellTiter-Glo ATP luminescence, 48-72 h; hits give low values
Results filed as inconclusive are left out.
Could you mark each record t if its max response falls strictly under -10%, and f if it equals or exceeds it?

Answered cases to consult:
**Q:** Please state whether max response is below -10% for `COc1cc(C#N)ccc1S(=O)(=O)Nc1ccc2c(c1)cc(C)c(=O)n2C`
**A:** t

**Q:** Please state whether max response is below -10% for `O=P(O)(O)OC(CO)CO`
**A:** f

**Q:** Please state whether max response is below -10% for `Cc1csc(N(C(=O)CSc2ccc(-c3ccccc3)nn2)C2CC2)n1`
**A:** f

**Q:** Please state whether max response is below -10% for `CCCCCCCC/C=C\CCCCCCCC(=O)OC[C@@H](O)[C@H]1OC[C@H](O)[C@H]1O`
**A:** t

**Q:** Please state whether max response is below -10% for CCOC(=O)N1c2ccc(C(F)(F)F)cc2C(N(Cc2cc(C(F)(F)F)cc(C(F)(F)F)c2)C(=O)OC)CC1CC (stereo not drawn)
**A:** f

**Q:** Please state whether max response is below -10% for `Cc1cc(-n2c(=O)[nH]c(=O)n(C)c2=O)ccc1Oc1ccc(S(=O)(=O)C(F)(F)F)cc1`
**A:** f

**Q:** Please state whether max response is below -10% for `Cc1[nH]cnc1C[C@H]1CCc2c(C)c3ccccc3n2C1=O`
**A:** t

**Q:** Please state whether max response is below -10% for `C=CCC1=C[C@]2(OC)[C@H](C)[C@@H](c3ccc4c(c3)OCO4)O[C@]2(OC)CC1=O`
**A:** f

Continuing:
**Q:** Please state whether max response is below -10% for CC1=C2C[C@@]3(C)C(CCC[C@@H]3C)C(O)C2OC1=O (stereo partly drawn)
**A:** f

**Q:** Please state whether max response is below -10% for CCCN(CCc1ccsc1)C1CCc2c(O)cccc2C1 (stereo not drawn)
**A:** f

**Q:** Please state whether max response is below -10% for C=C(C(=O)O[C@H]1C/C(C)=C/CC/C(CO)=C/[C@H]2OC(=O)C(=C)[C@H]12)C(O)CO (stereo partly drawn)
**A:** t

**Q:** Please state whether max response is below -10% for `CCC/C=C\C=C/CCc1cc(O)c([C@@H]2O[C@H](CO)[C@@H](O)[C@H](O)[C@H]2O)c(O)c1C(=O)OC`
**A:** f

**Q:** Please state whether max response is below -10% for O=C1O[C@H]2[C@H](O)[C@@H]1OC(O)[C@H]2O (stereo partly drawn)
**A:** f

**Q:** Please state whether max response is below -10% for `Cc1ccc(NC(=O)N2CCN(c3nc(N)nc4sc(-c5cccnc5)nc34)CC2)cc1`
**A:** t

**Q:** Please state whether max response is below -10% for `O=S1(=O)CCN(Cc2cc(NCC3CCOCC3)c3[nH]c(-c4ccccc4)cc3c2)CC1`
**A:** f

**Q:** Please state whether max response is below -10% for C/C(=C\CCC(C)C1=CCC2(C)OC3=C(CC12)C(=O)C(O)CC3)CO (stereo not drawn)
**A:** t

All figures here come from PubChem BioAssay (NCATS).
